Species: Homo sapiens
Assay: To identify inhibition of the IFN signalling (Jak-Stat) pathway via expression of an eGFP reporter gene under the control of an IFN-stimulated response element (ISRE) containing MxA promoter.
Assay type: functional
Design: scale not given: direction of the effect not stated beside the values
Details: 30 µM
OBSERVABLE: Percent Effect (%)

>>> recorded_number("CCC(=O)N1CCC(Cc2nccnc2Nc2ccccn2)CC1")
18.1
>>> recorded_number("Cc1ccc(NC2CCN(C(=O)c3cc(C(N)=O)cs3)CC2)nn1")
21.6
>>> recorded_number("CC(Cn1cccn1)NC(=O)NCc1cccnc1OC1CCCC1 (centres undefined)")
-10.3
>>> recorded_number("COc1ccc(C)cc1CN1CCCC1Cn1nc(C)nc1C (centres undefined)")
46.5
>>> recorded_number("COc1cc(CNC(=O)C2CC(=O)N(C(C)C)C2)ccn1 (centres undefined)")
24.4
>>> recorded_number("Cn1ccnc1COc1ccc(CN2CCN(CCO)CC2)cc1")
29.4
>>> recorded_number("O=C(Cc1ccccc1F)N1CCN(C(=O)c2cccc(F)c2)CC1")
13.3
>>> recorded_number("Cc1cc(C2CCCN(CCCS(=O)(=O)c3ccccc3)C2)n[nH]1 (centres undefined)")
18.4
>>> recorded_number("O=C(c1cnc(COc2ccccc2)nc1O)N1CCOCC1")
16.1
>>> recorded_number("O=C(C[C@@H]1COC[C@H]2CN(Cc3ccc(F)cc3)C[C@@H]12)N1CCOCC1")
7.29
>>> recorded_number("Cc1cc(CN2CCCC(C)(CO)C2)ccc1F (centres undefined)")
5.91
>>> recorded_number("CCSc1cc(C(=O)NCc2ccccc2O)ccn1")
44.3
>>> recorded_number("COc1ccccc1OCC(=O)NS(=O)(=O)c1ccccc1Br")
4.3
>>> recorded_number("Cc1ccc(S(=O)(=O)N2CCOc3ccccc32)cc1C(N)=O")
34.9
>>> recorded_number("CC(C)C(=O)N1CCN(Cc2csc(-c3ncccn3)n2)CC1")
2.18
>>> recorded_number("COC(=O)CCC(=O)N1CCc2[nH]nc(-c3ccc(F)c(F)c3)c2C1")
9.05
>>> recorded_number("CCOc1cc(/C=C/c2ncc(C(=O)O)s2)cc(Cl)c1OC")
10.1
>>> recorded_number("Cc1cccc(C(=O)N2CCCN(Cc3cnn(C)c3)CC2)n1")
13.4
>>> recorded_number("O=C(c1cccn2ccnc12)N1CCCN(c2cccnn2)CC1")
-11.5
>>> recorded_number("CC(O)CN(CC(=O)NC(=O)NC1CC1)c1ccccc1 (centres undefined)")
6.08
>>> recorded_number("CN(CCCc1cnn(C)c1)C(=O)C1CCOC1 (centres undefined)")
10.7
>>> recorded_number("O=S(=O)(CCNC1CCc2ncnn2C1)c1ccccc1 (centres undefined)")
0.944
>>> recorded_number("O=C(Nc1cccnc1)[C@H]1C[C@H]2OCC[C@H]2N(C(=O)c2ccsc2)C1")
-7.28
>>> recorded_number("COC[C@@H]1CC[C@H]2[C@H](CCN2S(=O)(=O)c2cccc(C)c2)O1")
-2.75
>>> recorded_number("CCc1cnc(N)nc1NCCN1CCCCC1")
4.63
>>> recorded_number("O=C(NCCNc1ccc(C(F)(F)F)cn1)c1ccc(Br)cc1F")
6.29
>>> recorded_number("COc1cc(C(=O)Nc2c(C)noc2C)ccc1C")
18.6
>>> recorded_number("COC(=O)c1cccn1C1CCN(C(=O)c2cc(C)ccc2O)CC1")
38.3
>>> recorded_number("Cn1nc2c(cc1=O)CN(Cc1nnc(-c3ccc(F)cc3)o1)CC2")
30.1

====

System: Trypanosoma cruzi
Experiment: Trypanosoma cruzi phosphomannomutase and mannose-1-phosphate guanylyltransferase assay
Format: functional
Set-up: scale not given: direction of the effect not stated beside the values
Conditions: 10 µM
OBSERVABLE: Percent Effect (%)

>>> recorded_number("Cc1ccc(CN2CC[C@H]3C[C@@H](c4nc(C5CC5)cs4)O[C@@H]3C2)o1")
10.1
>>> recorded_number("COCC(=O)N1CC[C@@H](N2CCOCC2)[C@@H]1Cc1ccccc1")
0.0974
>>> recorded_number("COc1ccccc1CC(=O)N1CCC(NCc2cccnc2)CC1")
-9.01
>>> recorded_number("CC(=O)NCCNC(=O)c1sc(-c2ccc(C)cc2C)nc1C")
-7.89
>>> recorded_number("CN1CCN(c2cc(CCNC(=O)C3CCC3)nc(C3CC3)n2)CC1")
-4.74
>>> recorded_number("Cc1cccc(CN2CCN(Cc3ccccc3)CC(O)C2)n1 (stereo unspecified)")
-0.193

====

Biological target: Arginase-2, mitochondrial (Homo sapiens)
Sequence (whole entry): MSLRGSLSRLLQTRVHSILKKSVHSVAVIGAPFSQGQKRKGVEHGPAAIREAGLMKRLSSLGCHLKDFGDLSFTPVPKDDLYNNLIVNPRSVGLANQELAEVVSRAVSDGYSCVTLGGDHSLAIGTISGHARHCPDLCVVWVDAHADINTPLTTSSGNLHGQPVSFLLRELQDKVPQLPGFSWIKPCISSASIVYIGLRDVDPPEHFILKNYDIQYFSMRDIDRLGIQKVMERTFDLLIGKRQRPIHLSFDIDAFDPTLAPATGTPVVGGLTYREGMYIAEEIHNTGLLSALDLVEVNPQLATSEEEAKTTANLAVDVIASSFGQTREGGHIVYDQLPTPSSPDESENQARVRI
Assay: in vitro enzyme assay to detect the production of urea directly proportional to the activity of Arginase II; note: in the data most compounds retested in dose-response had high values
Format: functional
Set-up: scale not given: direction of the effect not stated beside the values
Conditions: 33.3 µM
OBSERVABLE: Percent Effect (%)

>>> recorded_number("COc1c(CNC2CCc3cc(F)ccc32)c(C)nn1C (centres undefined)")
5.94
>>> recorded_number("O=C(Nc1cnccn1)[C@@H]1COC[C@H]2CN(C3CCCC3)C[C@H]21")
3.33
>>> recorded_number("Cn1c(CC2CCS(=O)(=O)C2)nnc1SCCOc1ccccc1F (centres undefined)")
30.5
>>> recorded_number("COc1cc(C)c(S(=O)(=O)NCc2cccnc2N(C)C)c(C)c1")
-5.53
>>> recorded_number("COc1cc(C(=O)N2CCCC(CNS(C)(=O)=O)C2)cc(OC)c1C (centres undefined)")
0.802
>>> recorded_number("COc1c(C2CCCN2C(=O)c2ccnc(N(C)C)c2)c(C)nn1C (centres undefined)")
2.74
>>> recorded_number("Cc1oc(C)c(C(=O)NCc2ccccc2S(=O)(=O)N(C)C)c1C")
-3.83
>>> recorded_number("CN(C)CCN1CCCC12CCN(C(=O)c1cnccn1)CC2")
4.57
>>> recorded_number("CCn1ncnc1C(NC(=O)CC1CCN(C(C)C)CC1)C1CC1 (centres undefined)")
-1.74
>>> recorded_number("Cc1cc(C)n(CC2CCCCN2C(=O)c2ccc3nncn3c2)n1 (centres undefined)")
-1.77
>>> recorded_number("Cc1nsc(NC(=O)N2CCC(C(C)(C)O)CC2)n1")
1.74
>>> recorded_number("CCNC(=O)N1CCN(Cc2nc3ccccc3[nH]2)[C@@H]2CS(=O)(=O)C[C@@H]21")
2.23
>>> recorded_number("CC(=O)N1CCN(C(=O)C2SCCc3sccc32)CC1 (centres undefined)")
-0.833
>>> recorded_number("COc1cccc(COCC(=O)N2CCN(CC(C)(C)O)CC2)c1")
6.51
>>> recorded_number("O=C1NCc2ccc(NC(=O)C3CCCN3c3nccs3)cc21 (centres undefined)")
-1.23
>>> recorded_number("CN(Cc1cnn(C)c1)C(=O)NC1CCC(O)CC1 (centres undefined)")
9.71
>>> recorded_number("O=C(COC(=O)Cc1cccs1)NCc1cccc(NC(=O)C2CC2)c1")
-1.08
>>> recorded_number("CC(=O)N1[C@H](CN(C)C)C[C@@H]2CN(C(=O)c3cccc(F)c3)CC[C@@H]21")
-12.8
>>> recorded_number("Cc1cc(CC(=O)NCc2ccnc(OCC(F)(F)F)c2)no1")
-0.766
>>> recorded_number("CNC(=O)[C@H]1C[C@@H]2CN(C(=O)Nc3ccc(F)cc3)C[C@H]1O2")
9.68
>>> recorded_number("N#Cc1ccccc1OCCN1CCCC1Cn1cccn1 (centres undefined)")
-3.61
>>> recorded_number("O=C(CCCOc1ccccc1Cl)N1CCCC(n2cncn2)C1 (centres undefined)")
-13.9
>>> recorded_number("c1nc(COCC2CC2)c2n1CCCN(CC1CC1)C2")
-22.4
>>> recorded_number("COc1ccc(C(C)NC(=O)Cn2ccc(=O)n(C)c2=O)cc1OC (centres undefined)")
3.48
>>> recorded_number("CSc1cccc(CNC(=O)C2CC(=O)N(CCN(C)C)C2)c1 (centres undefined)")
1.56
>>> recorded_number("O=C(c1ccc(F)cc1F)N1C[C@@H](O)[C@H](N2CCOCC2)C1")
-3.1
>>> recorded_number("COCC(=O)N1CCC(c2cccc(Cc3ccc(F)cc3)n2)CC1")
3.94
>>> recorded_number("COc1ccccc1NC(=O)CSC1CCc2ccccc2NC1=O (centres undefined)")
17.1
>>> recorded_number("Cc1cc(C)cc(-c2cccc(CC3(C(=O)O)CCOCC3)c2)c1")
-9.05
>>> recorded_number("CN(c1ccc(C(=O)NCCCN2CCOCC2)c(Cl)c1)S(C)(=O)=O")
-13.8
>>> recorded_number("Cc1ccccc1CSc1nc(N)cc(N2C[C@H](O)[C@@H](N(C)C)C2)n1")
1.24
>>> recorded_number("Cc1cc(N2CCC(CC(N)=O)CC2)nc(-c2ccncc2)n1")
3.07
>>> recorded_number("CCSCC(C)NCc1nncn1C1CCCCC1 (centres undefined)")
0.883
>>> recorded_number("COC(=O)CC(c1ccc(OC)c(OC)c1)c1oc(C)cc(=O)c1O (centres undefined)")
-10.1
>>> recorded_number("CC(C)N1CC(C(=O)NCc2ccnc(-n3cccn3)c2)CC1=O (centres undefined)")
8.2
>>> recorded_number("c1ccc(-n2ccnc2)c(CNCC2CNc3ccnn3C2)c1 (centres undefined)")
1.07
>>> recorded_number("O=S(=O)(c1ccccc1Cl)N1CCc2nc(C3CCNCC3)ncc2C1")
-1.33
>>> recorded_number("CC(C(=O)N1CCCN(c2ccc(C#N)cc2)CC1)n1ccnc1 (centres undefined)")
6.13
>>> recorded_number("COc1ccc(CC(=O)N2CCCC(n3cc(C)cn3)C2)cc1F (centres undefined)")
2.66
